The following molecules are listed with their measured hepatocyte CLint at 1 µM values.
assayInfo: in vitro
conditionLabel: human hepatocytes

{"compoundSmiles": "COc1ccc([C@@]23CC[C@H](O)C[C@@H]2N(C)CC3)cc1OC", "reportedRelation": "<", "hepatocyte CLint at 1 µM [µL/min/1e6 cells]": 1}
{"compoundSmiles": "COc1ccc([C@@]23CC[C@@H](O)C[C@@H]2N(C)CC3)cc1OC", "reportedRelation": "=", "hepatocyte CLint at 1 µM [µL/min/1e6 cells]": 1}

###

assayInfo: in vivo
conditionLabel: beagle, dog, po, 10 mg/kg

{"molecule": "COc1ccc([C@@]23CC[C@@H](O)C[C@@H]2N(C)CC3)cc1OC [Compound 018]", "half-life": "357 min"}
{"molecule": "COc1ccc([C@@]23CC[C@H](O)C[C@@H]2N(C)CC3)cc1OC [Compound 019]", "half-life": "200 min"}

###

targetOfAssay: PDE4A1A (Homo sapiens (Human))
Sequence (P27815 other isoform, or with tags, fused parts or gaps): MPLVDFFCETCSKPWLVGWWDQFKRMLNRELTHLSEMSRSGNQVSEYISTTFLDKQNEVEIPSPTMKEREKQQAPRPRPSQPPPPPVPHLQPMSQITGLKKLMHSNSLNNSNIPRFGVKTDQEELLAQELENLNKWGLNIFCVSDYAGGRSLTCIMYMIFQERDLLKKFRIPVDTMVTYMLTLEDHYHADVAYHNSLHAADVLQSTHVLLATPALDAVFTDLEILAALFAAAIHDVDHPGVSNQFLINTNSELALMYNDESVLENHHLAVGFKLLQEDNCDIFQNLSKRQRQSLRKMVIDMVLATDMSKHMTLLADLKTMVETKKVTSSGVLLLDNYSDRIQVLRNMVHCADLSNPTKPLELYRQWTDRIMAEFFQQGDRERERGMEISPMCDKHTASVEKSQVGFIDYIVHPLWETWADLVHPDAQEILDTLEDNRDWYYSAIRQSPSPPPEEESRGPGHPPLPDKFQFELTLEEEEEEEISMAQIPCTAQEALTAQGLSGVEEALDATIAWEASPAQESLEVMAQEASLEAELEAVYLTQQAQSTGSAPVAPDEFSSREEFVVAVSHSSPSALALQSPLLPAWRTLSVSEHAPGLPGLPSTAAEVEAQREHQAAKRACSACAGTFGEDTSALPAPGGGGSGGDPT
assayInfo: PDE4 inhibition assay (fluorescence polarization), PDE4A1A
Type: biochemical
conditionLabel: 10 μM

{"molecule": "COc1ccc(C23C=CC(O)CC2N(C)CC3)cc1OC [Compound 024, (S, S, R) Mesembrenol]", "valueUnit": "%", "PDE4A1A % INH @ 10 μM": 45}
{"molecule": "COc1ccc(C23C=CC(O)CC2N(C)CC3)cc1OC [Compound 023, (R, S, R) Mesembrenol]", "valueUnit": "%", "PDE4A1A % INH @ 10 μM": 15}
{"molecule": "COc1ccc(C23C=CC(O)CC2N(C)CC3)cc1OC [Compound 021, (R, R, S) Mesembrenol]", "valueUnit": "%", "PDE4A1A % INH @ 10 μM": 22}
{"molecule": "COc1ccc(C23C=CC(O)CC2N(C)CC3)cc1OC [Compound 020, (S, R, S) Mesembrenol]", "valueUnit": "%", "PDE4A1A % INH @ 10 μM": 68}
{"molecule": "COc1ccc([C@@]23CC[C@@H](O)C[C@@H]2N(C)CC3)cc1OC", "valueUnit": "%", "PDE4A1A % INH @ 10 μM": 5}
{"molecule": "COc1ccc([C@@]23CC[C@H](O)C[C@@H]2N(C)CC3)cc1OC", "valueUnit": "%", "PDE4A1A % INH @ 10 μM": 4}

###

The following molecules are listed with their measured AUC(0-inf) values.
assayInfo: in vivo
conditionLabel: beagle, dog, po, 10 mg/kg
parameterMeasured: AUC(0-inf) (ng·h/mL)

{"compoundSmiles": "COc1ccc([C@@]23CC[C@@H](O)C[C@@H]2N(C)CC3)cc1OC", "parameterMeasured": "AUC(0-inf)", "valueUnit": "ng·h/mL", "endpointResult": 151}
{"compoundSmiles": "COc1ccc([C@@]23CC[C@H](O)C[C@@H]2N(C)CC3)cc1OC", "parameterMeasured": "AUC(0-inf)", "valueUnit": "ng·h/mL", "endpointResult": 14800}

###

The following compounds are listed with their measured Cmax values.
assayInfo: in vivo
conditionLabel: beagle, dog, po, 10 mg/kg

{"compound": "COc1ccc([C@@]23CC[C@H](O)C[C@@H]2N(C)CC3)cc1OC [Compound 019]", "Cmax, ng/mL": 2550}
{"compound": "COc1ccc([C@@]23CC[C@@H](O)C[C@@H]2N(C)CC3)cc1OC [Compound 018]", "Cmax, ng/mL": 84.4}

Where do the numbers come from? From patent US20240398759A1.
